These data points were gathered from ChEMBL document CHEMBL1140054.

Reported Activity is given for each of the following compounds.
- protocolDescription: Cytotoxicity against bovine chondrocytes at 0.1 mM after 96 hrs by MTT cell viability assay
- Format: cell-based, Bos taurus
- measurementParameters: cattle, 100 µM
Field format: number, assumed %, no unit text.

Would you please look over these solved cases?
COc1ccc(OP(=O)(N[C@H](C(=O)OCc2ccccc2)C(C)C)OC[C@H]2OC(O)[C@H](NC(C)=O)[C@@H](O)[C@@H]2O)cc1 (some centres undefined); 104
CCOC(=O)CNP(=O)(OC[C@H]1OC(O)[C@H](NC(C)=O)[C@@H](O)[C@@H]1O)Oc1ccc(OC)cc1 (some centres undefined); 78
CCOC(=O)[C@H](C)NP(=O)(OC[C@H]1OC(O)[C@H](NC(C)=O)[C@@H](O)[C@@H]1O)Oc1ccc(OC)cc1 (some centres undefined); 89

The record that follows has no Activity shown yet.
The compound listed as COc1ccc(OP(=O)(OC[C@H]2OC(O)[C@H](NC(C)=O)[C@@H](O)[C@@H]2O)N2CCC[C@H]2C(=O)OCc2ccccc2)cc1 (some centres undefined) shows Activity equal to 78
